Data credit: PubChem BioAssay AID248

Test system: L1210 leukemia ip in BDF1 mice, survival T/C
ASSAY_SUMMARY: NCI In Vivo Anticancer Drug Screen. Data for tumor model L1210 Leukemia (intraperitoneal) in B6D2F1 (BDF1) mice
COND: endpoint: mean survival time; dose: 100.0 mg/kg/injection; schedule: Q01DX001 (ip); vehicle: Klucel (hydroxypropylcellulose) (HPC); higher = longer survival
Method: The antitumor activity of compounds was measured in mice bearing transplantable tumors. Survival or tumor size were measured and the results are expressed as the measurement made in the treated group (T) divided by the measurement made in the vehicle treated control group (C). The tumor model used in this assay is L1210 Leukemia (intraperitoneal) in B6D2F1 (BDF1) mice
Toxic doses and inconclusive results are not listed.

{"MOLECULE": "CC(OC(=O)c1ccc([N+](=O)[O-])cc1)C(C)OC(=O)c1ccc([N+](=O)[O-])cc1 (configuration not stated)", "T/C": "92 % of control"}
{"MOLECULE": "CC(C(O)c1ccccc1)C(O)(C(F)(F)Cl)C(F)(F)Cl (configuration not stated)", "T/C": "102 % of control"}
{"MOLECULE": "CC1CC(CC(=O)O)(C(=O)O)CC(C)O1 (configuration not stated)", "T/C": "105 % of control"}
{"MOLECULE": "O=C1c2ccccc2C(=O)N1C1C=CC=CC=C1", "T/C": "95 % of control"}
{"MOLECULE": "O=S(=O)(OC1CC2C=CC1C21CC1)c1ccc(Br)cc1 (configuration not stated)", "T/C": "98 % of control"}
{"MOLECULE": "COc1ccccc1-n1c(O)c(N=Nc2ccc(Cl)cc2)c(=O)n(-c2ccc(Br)cc2)c1=S", "T/C": "89 % of control"}
{"MOLECULE": "O=C(O)C1=CC2CC1C1CC(C(=O)O)CC21 (configuration not stated)", "T/C": "105 % of control"}
{"MOLECULE": "CC(=O)Oc1c2n(c(=O)c3cocc13)Cc1cc3ccccc3nc1-2", "T/C": "92 % of control"}
{"MOLECULE": "CCc1cnc(N)nc1N", "T/C": "107 % of control"}
{"MOLECULE": "CCOc1cc[n+]([O-])cc1", "T/C": "96 % of control"}
{"MOLECULE": "CC(C)=NSc1ccccc1", "T/C": "97 % of control"}
{"MOLECULE": "O=[N+]([O-])c1ccc(Oc2cccc(C(F)(F)F)c2)c(Cl)c1", "T/C": "94 % of control"}

###

Reported T/C is given for each of the following compounds.
Test system: L1210 leukemia ip in BDF1 mice, survival T/C
ASSAY_SUMMARY: NCI In Vivo Anticancer Drug Screen. Data for tumor model L1210 Leukemia (intraperitoneal) in B6D2F1 (BDF1) mice
COND: endpoint: mean survival time; dose: 50.0 mg/kg/injection; schedule: Q01DX009 (ip); vehicle: saline; higher = longer survival
Toxic doses and inconclusive results are not listed.

{"COMPOUND": "C1OCC2CCC(CC2)CO1", "SUBJECT_OF_TEST": "L1210 leukemia ip in BDF1 mice, survival T/C", "T/C": "95 % of control"}
{"COMPOUND": "c1ccc([Si](c2ccccc2)(c2ccccc2)[Si](c2ccccc2)(c2ccccc2)c2ccccc2)cc1", "SUBJECT_OF_TEST": "L1210 leukemia ip in BDF1 mice, survival T/C", "T/C": "93 % of control"}
{"COMPOUND": "COC(=O)C1(N)CCCC1", "SUBJECT_OF_TEST": "L1210 leukemia ip in BDF1 mice, survival T/C", "T/C": "109 % of control"}
{"COMPOUND": "Br/C=C/C[N+]12CN3CN(CN(C3)C1)C2", "SUBJECT_OF_TEST": "L1210 leukemia ip in BDF1 mice, survival T/C", "T/C": "96 % of control"}
{"COMPOUND": "CN1CCC=C(C(=O)N2c3ccccc3CCc3ccccc32)C1", "SUBJECT_OF_TEST": "L1210 leukemia ip in BDF1 mice, survival T/C", "T/C": "107 % of control"}
{"COMPOUND": "CCN(CC)C(C)COC(=O)c1cc(=O)n(C)c2ccccc12 (configuration not stated)", "SUBJECT_OF_TEST": "L1210 leukemia ip in BDF1 mice, survival T/C", "T/C": "101 % of control"}
{"COMPOUND": "C#CC(C)(C)OCC1CO1 (configuration not stated)", "SUBJECT_OF_TEST": "L1210 leukemia ip in BDF1 mice, survival T/C", "T/C": "90 % of control"}
{"COMPOUND": "CP1(=O)CC2OC23CCCCC31 (configuration not stated)", "SUBJECT_OF_TEST": "L1210 leukemia ip in BDF1 mice, survival T/C", "T/C": "102 % of control"}
{"COMPOUND": "CCCC(N=Cc1ccccc1O)C(=O)O.CCCC(N=Cc1ccccc1O)C(=O)O.[Fe] (configuration not stated)", "SUBJECT_OF_TEST": "L1210 leukemia ip in BDF1 mice, survival T/C", "T/C": "93 % of control"}
{"COMPOUND": "COC(=O)C(N)Cc1ccc(OC(c2ccccc2)(c2ccccc2)c2ccccc2)cc1 (configuration not stated)", "SUBJECT_OF_TEST": "L1210 leukemia ip in BDF1 mice, survival T/C", "T/C": "101 % of control"}
{"COMPOUND": "CCCCCCCCCCCCC(CC(=O)O)C(=O)N(C)CC(O)C(O)C(O)C(O)CO (configuration not stated)", "SUBJECT_OF_TEST": "L1210 leukemia ip in BDF1 mice, survival T/C", "T/C": "106 % of control"}
{"COMPOUND": "Cc1nc(C(=O)O)cs1", "SUBJECT_OF_TEST": "L1210 leukemia ip in BDF1 mice, survival T/C", "T/C": "95 % of control"}

###

Test system: L1210 leukemia ip in BDF1 mice, survival T/C
ASSAY_SUMMARY: NCI In Vivo Anticancer Drug Screen. Data for tumor model L1210 Leukemia (intraperitoneal) in B6D2F1 (BDF1) mice
COND: endpoint: mean survival time; dose: 25.0 mg/kg/injection; schedule: Q04DX002 (ip); vehicle: Klucel (hydroxypropylcellulose) (HPC); higher = longer survival
Toxic doses and inconclusive results are not listed.

{"COMPOUND": "C=Cc1c[nH]c(=O)[nH]c1=O", "T/C": "94 % of control"}
{"COMPOUND": "COc1ccc2c(CSc3nc(N)nc4nc[nH]c34)cc(=O)oc2c1", "T/C": "108 % of control"}
{"COMPOUND": "O=C(O)/C=C/S(=O)(=O)c1ccc(Cl)cc1", "T/C": "97 % of control"}
{"COMPOUND": "O=C(Nc1cccc2ccccc12)Oc1ccc(Cl)cc1Cc1ccccc1", "T/C": "105 % of control"}
{"COMPOUND": "O=C(OCc1ccccc1CN1CCOCC1)c1cccc(Br)c1", "T/C": "93 % of control"}
{"COMPOUND": "Cc1c2c(nn1-c1ccccn1)C(=O)C=C(Nc1ccccc1)C2=O", "T/C": "96 % of control"}
{"COMPOUND": "C1CCC2[N-]CC3CCCCC3[N-]CC3CCCCC3[N-]CC3CCCCC3[N-]CC2C1.[Cl][Fe]([Cl])([Cl])[Cl].[Fe+6] (configuration not stated)", "T/C": "102 % of control"}

###

Test system: L1210 leukemia ip in BDF1 mice, survival T/C
ASSAY_SUMMARY: NCI In Vivo Anticancer Drug Screen. Data for tumor model L1210 Leukemia (intraperitoneal) in B6D2F1 (BDF1) mice
COND: endpoint: mean survival time; dose: 50.0 mg/kg/injection; schedule: Q01DX009 (ip); vehicle: saline with Tween-80; higher = longer survival
Toxic doses and inconclusive results are not listed.
PARAMETER_MEASURED: T/C

{"COMPOUND_STRUCTURE_STRING": "CC(=O)Nc1ccc(/C=N/NC(=O)CNC(=O)NCc2ccccc2)cc1", "SUBJECT_OF_TEST": "L1210 leukemia ip in BDF1 mice, survival T/C", "PARAMETER_MEASURED": "T/C", "REPORTED": "95 % of control"}
{"COMPOUND_STRUCTURE_STRING": "COC(=O)/C(Br)=C\\c1ccc(-c2ccccc2)cc1", "SUBJECT_OF_TEST": "L1210 leukemia ip in BDF1 mice, survival T/C", "PARAMETER_MEASURED": "T/C", "REPORTED": "93 % of control"}
{"COMPOUND_STRUCTURE_STRING": "Cc1nc2c(NC(=O)CCl)nn(C)c2nc1C", "SUBJECT_OF_TEST": "L1210 leukemia ip in BDF1 mice, survival T/C", "PARAMETER_MEASURED": "T/C", "REPORTED": "98 % of control"}
{"COMPOUND_STRUCTURE_STRING": "NNC(=O)c1ccc(N)cc1", "SUBJECT_OF_TEST": "L1210 leukemia ip in BDF1 mice, survival T/C", "PARAMETER_MEASURED": "T/C", "REPORTED": "93 % of control"}
{"COMPOUND_STRUCTURE_STRING": "COc1ccc(OC)c2c1CCCC21OCCO1", "SUBJECT_OF_TEST": "L1210 leukemia ip in BDF1 mice, survival T/C", "PARAMETER_MEASURED": "T/C", "REPORTED": "105 % of control"}
{"COMPOUND_STRUCTURE_STRING": "O=C(Nc1ccc(Cl)cc1Cl)OCCOc1ccc([N+](=O)[O-])cc1", "SUBJECT_OF_TEST": "L1210 leukemia ip in BDF1 mice, survival T/C", "PARAMETER_MEASURED": "T/C", "REPORTED": "102 % of control"}
{"COMPOUND_STRUCTURE_STRING": "CCOC(=O)C(CC)(CCC(C)C)C(=O)OCC", "SUBJECT_OF_TEST": "L1210 leukemia ip in BDF1 mice, survival T/C", "PARAMETER_MEASURED": "T/C", "REPORTED": "92 % of control"}
{"COMPOUND_STRUCTURE_STRING": "CC1(C)CCc2ccccc2C1", "SUBJECT_OF_TEST": "L1210 leukemia ip in BDF1 mice, survival T/C", "PARAMETER_MEASURED": "T/C", "REPORTED": "104 % of control"}
{"COMPOUND_STRUCTURE_STRING": "Cc1cc(C)c(N)c(Br)c1", "SUBJECT_OF_TEST": "L1210 leukemia ip in BDF1 mice, survival T/C", "PARAMETER_MEASURED": "T/C", "REPORTED": "87 % of control"}
